FYI, the data here is from ChEMBL document CHEMBL3885861.

species: Rattus norvegicus; assay: Open TG-GATES - Regimen: Daily Repeat; assay type: toxicity, organism-based, Sprague-Dawley; set-up: regimen Daily Repeat, gender Male, age 6 weeks; settings: in vivo, po, 1000 mg/kg, […], tissue Plasma, route gavage, dose level High, time 28 day
Property: LDH (IU/L)
Response body: numeric value in IU/L, unit text excluded.

Example molecules with recorded LDH:
Chemical Structure	Measure Unit	Assay Result
CCOc1ccc(NC(C)=O)cc1	IU/L	70.8
O=C(OC[C@H]1O[C@@H](OC(=O)c2cc(O)c(O)c(OC(=O)c3cc(O)c(O)c(O)c3)c2)[C@H](OC(=O)c2cc(O)c(O)c(OC(=O)c3cc(O)c(O)c(O)c3)c2)[C@@H](OC(=O)c2cc(O)c(O)c(OC(=O)c3cc(O)c(O)c(O)c3)c2)[C@@H]1OC(=O)c1cc(O)c(O)c(OC(=O)c2cc(O)c(O)c(O)c2)c1)c1cc(O)c(O)c(OC(=O)c2cc(O)c(O)c(O)c2)c1	IU/L	87.8
Cc1nnc2n1-c1ccc(Cl)cc1C(c1ccccc1Cl)=NC2	IU/L	75

Kindly note the recorded LDH for "CNC(=C[N+](=O)[O-])NCCSCc1ccc(CN(C)C)o1" , which is 114.2

Lab book: LDH of "CN/C(=N/CCSCc1nc[nH]c1C)NC#N" noted as 178.2

Record "COC(=O)C1=C(C)NC(C)=C(C(=O)OC)C1c1ccccc1[N+](=O)[O-]" , field LDH: 62.8

---

organism: Rattus norvegicus; experiment: Open TG-GATES - Regimen: Daily Repeat; type: toxicity, organism-based, Sprague-Dawley; design: regimen Daily Repeat, gender Male, age 6 weeks; details: in vivo, po, 300 mg/kg, […], tissue Plasma, route gavage, dose level Middle, time 7 day
Threshold check on ALT: at or above 40 IU/L gives YES, strictly below gives NO.

See these solved cases before continuing.
Chemical Structure	Assigned Class
CN/C(=N/CCSCc1nc[nH]c1C)NC#N	NO
O=C(OC[C@H]1O[C@@H](OC(=O)c2cc(O)c(O)c(OC(=O)c3cc(O)c(O)c(O)c3)c2)[C@H](OC(=O)c2cc(O)c(O)c(OC(=O)c3cc(O)c(O)c(O)c3)c2)[C@@H](OC(=O)c2cc(O)c(O)c(OC(=O)c3cc(O)c(O)c(O)c3)c2)[C@@H]1OC(=O)c1cc(O)c(O)c(OC(=O)c2cc(O)c(O)c(O)c2)c1)c1cc(O)c(O)c(OC(=O)c2cc(O)c(O)c(O)c2)c1	NO
CNC(=C[N+](=O)[O-])NCCSCc1ccc(CN(C)C)o1	NO
Cc1nnc2n1-c1ccc(Cl)cc1C(c1ccccc1Cl)=NC2	YES

API: the following record is the query input.
Problem: Check this molecule for ALT at or above 40 IU/L: "COC(=O)C1=C(C)NC(C)=C(C(=O)OC)C1c1ccccc1[N+](=O)[O-]"
Solution: YES

---

species on record: Rattus norvegicus; experiment: Open TG-GATES - Regimen: Daily Repeat; type: toxicity, organism-based, Sprague-Dawley; parameters: regimen Daily Repeat, gender Male, age 6 weeks; details: in vivo, po, 0 mg/kg, 72 h, tissue Blood, route gavage, dose level Control, time 3 day
Listing: Plat of selected molecules
Returns: string containing the number followed by the unit.

Molecule	Assay Result
CN/C(=N/CCSCc1nc[nH]c1C)NC#N	132.2 x10_4/uL

Per the record, "Nc1c2c(nc3ccccc13)CCCC2" has Plat of 125.8 x10_4/uL

---

species on record: Rattus norvegicus; test: Open TG-GATES - Regimen: Daily Repeat; type: toxicity, organism-based, Sprague-Dawley; set-up: regimen Daily Repeat, gender Male, age 6 weeks; conditions: in vivo, po, 0 mg/kg, 72 h, tissue Blood, route gavage, dose level Control, time 3 day
Classification field: enter 1.0 for Ht values not below 40%, 0.0 for values below it.

Compound	Assigned Class
CN(C)CCC(c1ccc(Cl)cc1)c1ccccn1 (stereo unspecified)	1.0

Could you now look at the following compound, please?
Problem: I'd appreciate it if you could say whether "Brc1ccccc1" has Ht at least equal to 40%.
Solution: 0.0

---

species on record: Rattus norvegicus; assay: Open TG-GATES - Regimen: Single; assay type: toxicity, organism-based, Sprague-Dawley; set-up: regimen Single, gender Male, age 6 weeks; conditions: in vivo, po, 100 mg/kg, 24 h, tissue Blood, route gavage, dose level Low
Measured Ret, listed per entry for reference.
// return numeric value only (unit: %, not printed)

Chemical Structure	Ret (%)
CN/C(=N/CCSCc1nc[nH]c1C)NC#N	7.2
COC(=O)C1=C(C)NC(C)=C(C(=O)OC)C1c1ccccc1[N+](=O)[O-]	8.8

Turning now to a further record.
// Ret value for "CNC(=C[N+](=O)[O-])NCCSCc1ccc(CN(C)C)o1" : 6.5

---

species: Rattus norvegicus; assay: Open TG-GATES - Regimen: Single; format: toxicity, organism-based, Sprague-Dawley; design: regimen Single, gender Male, age 6 weeks; details: in vivo, po, 0 mg/kg, 3 h, tissue Blood, route gavage, dose level Control
Property: Plat (x10_4/uL)
Only the number, expressed in x10_4/uL, is required.

Compound	Plat [x10_4/uL]
NC1=NC(=O)C(c2ccccc2)O1 (stereo not drawn) [PEMOLINE]	113.2
Brc1ccccc1 [BROMOBENZENE]	117.7
CN1C(=O)CCS(=O)(=O)C1c1ccc(Cl)cc1 (stereo not drawn) [CHLORMEZANONE]	122.7
CN/C(=N/CCSCc1nc[nH]c1C)NC#N [CIMETIDINE]	139.7
Nc1c2c(nc3ccccc13)CCCC2 [TACRINE]	114.9
CC(C)NNC(=O)c1ccncc1 [IPRONIAZID]	108.8
CN(C)CCC(c1ccc(Cl)cc1)c1ccccn1 (stereo not drawn) [CHLORPHENIRAMINE]	109.9

Moving on to another compound below.
# Plat of O=C(OC[C@H]1O[C@@H](OC(=O)c2cc(O)c(O)c(OC(=O)c3cc(O)c(O)c(O)c3)c2)[C@H](OC(=O)c2cc(O)c(O)c(OC(=O)c3cc(O)c(O)c(O)c3)c2)[C@@H](OC(=O)c2cc(O)c(O)c(OC(=O)c3cc(O)c(O)c(O)c3)c2)[C@@H]1OC(=O)c1cc(O)c(O)c(OC(=O)c2cc(O)c(O)c(O)c2)c1)c1cc(O)c(O)c(OC(=O)c2cc(O)c(O)c(O)c2)c1 [TANNIC ACID] = 106.7

---

species: Rattus norvegicus; experiment: Open TG-GATES - Regimen: Daily Repeat; type: toxicity, organism-based, Sprague-Dawley; design: regimen Daily Repeat, gender Male, age 6 weeks; details: in vivo, po, 1000 mg/kg, […], tissue Plasma, route gavage, dose level High, time 7 day
Property: ALP (IU/L)
Answer in IU/L, number only, no unit symbol.

Here's what some known entries look like.
Chemical Structure	Measure Unit	ALP
CCOc1ccc(NC(C)=O)cc1	IU/L	1794.2
CN/C(=N/CCSCc1nc[nH]c1C)NC#N	IU/L	1073
Cc1nnc2n1-c1ccc(Cl)cc1C(c1ccccc1Cl)=NC2	IU/L	1848.4
CNC(=C[N+](=O)[O-])NCCSCc1ccc(CN(C)C)o1	IU/L	852.4
COC(=O)C1=C(C)NC(C)=C(C(=O)OC)C1c1ccccc1[N+](=O)[O-]	IU/L	1072.4

Shift focus to the following entry.
Documented ALP of "O=C(OC[C@H]1O[C@@H](OC(=O)c2cc(O)c(O)c(OC(=O)c3cc(O)c(O)c(O)c3)c2)[C@H](OC(=O)c2cc(O)c(O)c(OC(=O)c3cc(O)c(O)c(O)c3)c2)[C@@H](OC(=O)c2cc(O)c(O)c(OC(=O)c3cc(O)c(O)c(O)c3)c2)[C@@H]1OC(=O)c1cc(O)c(O)c(OC(=O)c2cc(O)c(O)c(O)c2)c1)c1cc(O)c(O)c(OC(=O)c2cc(O)c(O)c(O)c2)c1" : 897.4

---

organism: Rattus norvegicus; experiment: Open TG-GATES - Regimen: Single; type: toxicity, organism-based, Sprague-Dawley; parameters: regimen Single, gender Male, age 6 weeks; conditions: in vivo, po, 100 mg/kg, 6 h, tissue Plasma, route gavage, dose level Low
Consider the following compounds and their measured RALB readings.
Give the quantity in g/dL, number only.

Chemical Structure	Measure Unit	RALB
O=C(OC[C@H]1O[C@@H](OC(=O)c2cc(O)c(O)c(OC(=O)c3cc(O)c(O)c(O)c3)c2)[C@H](OC(=O)c2cc(O)c(O)c(OC(=O)c3cc(O)c(O)c(O)c3)c2)[C@@H](OC(=O)c2cc(O)c(O)c(OC(=O)c3cc(O)c(O)c(O)c3)c2)[C@@H]1OC(=O)c1cc(O)c(O)c(OC(=O)c2cc(O)c(O)c(O)c2)c1)c1cc(O)c(O)c(OC(=O)c2cc(O)c(O)c(O)c2)c1	g/dL	3.5

The compound listed as "COC(=O)C1=C(C)NC(C)=C(C(=O)OC)C1c1ccccc1[N+](=O)[O-]" has a reported RALB of 2.6
